Listing of recorded GI50 by entry.
Tested on: DU145 (human prostate cancer cells)
Experiment: MTT cancer cell growth inhibition
Format: cell-based
Conditions: Homo sapiens, DU-145, 72 h, DU145 cells, MTT, 72 hours incubation; read-out: GI50 Du1
Answer format: numeric, nM implied, no suffix.

{"columns": ["STRUCTURE_NOTATION", "GI50 (nM)"],
 "data": [
  ["C/C=C1\\NC(=O)c2ccc(SCCC)c(n2)CNC(=O)C[C@@H](/C=C/CCSC(=O)CCCCCCC)OC(=O)[C@H](CC)NC1=O", 50],
  ["C/C=C1\\NC(=O)c2nc(ccc2SC)CNC(=O)C[C@@H](/C=C/CCSC(=O)CCC)OC(=O)[C@H](C(C)C)NC1=O", 40]
]}

Item: C/C=C1\NC(=O)c2nc(ccc2SCC)CNC(=O)C[C@@H](/C=C/CCSC(=O)CCCCC)OC(=O)[C@H](C(C)C)NC1=O | GI50: 20

---

Target: HDAC11 (Homo sapiens, UniProt Q96DB2)
Sequence (Q96DB2 1-347): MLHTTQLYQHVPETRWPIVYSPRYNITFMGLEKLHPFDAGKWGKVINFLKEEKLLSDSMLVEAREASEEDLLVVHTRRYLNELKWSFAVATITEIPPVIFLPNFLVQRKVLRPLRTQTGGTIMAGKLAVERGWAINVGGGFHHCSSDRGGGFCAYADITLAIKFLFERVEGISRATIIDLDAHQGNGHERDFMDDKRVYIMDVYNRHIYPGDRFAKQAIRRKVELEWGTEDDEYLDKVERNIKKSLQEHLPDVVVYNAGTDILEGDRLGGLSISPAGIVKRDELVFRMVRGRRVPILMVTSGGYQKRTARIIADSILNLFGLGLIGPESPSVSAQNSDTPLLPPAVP
Assay: HDAC biochemical activity measurement (fluorescent substrate deacetylation)
List of pIC50 values.
In simple prose, pIC50 is minus the logarithm base ten of a concentration in moles per litre.

{"columns": ["COMPOUND", "TARGET_OR_SYSTEM", "pIC50"],
 "data": [
  ["C/C=C1\\NC(=O)c2cc(C)cc(n2)CNC(=O)C[C@@H](/C=C/CCSC(C)=O)OC(=O)[C@H](Cc2ccccc2)NC1=O [Example 67]", "HDAC11 (Homo sapiens, UniProt Q96DB2)", 7.04],
  ["C/C=C1\\NC(=O)c2cc(SCCC)cc(n2)CNC(=O)C[C@@H](/C=C/CCSC(=O)CCCCCCC)OC(=O)[C@H](CC)NC1=O [Compound 175]", "HDAC11 (Homo sapiens, UniProt Q96DB2)", 7.26],
  ["C/C=C1\\NC(=O)c2cc(SC)cc(n2)CNC(=O)C[C@@H](/C=C/CCSC(C)=O)OC(=O)[C@H](CCCCN)NC1=O [Compound 193]", "HDAC11 (Homo sapiens, UniProt Q96DB2)", 7.03],
  ["C/C=C1\\NC(=O)c2cccc(n2)CNC(=O)C[C@@H](/C=C/CCSC(=O)CCCCCCC)OC(=O)[C@H](CCSC)NC1=O [Compound 240]", "HDAC11 (Homo sapiens, UniProt Q96DB2)", 7.25],
  ["C/C=C1\\NC(=O)c2ccc(SC)c(n2)CNC(=O)C[C@@H](/C=C/CCSC(=O)CCCCCCC)OC(=O)[C@H](Cc2ccccc2)NC1=O [Compound 191]", "HDAC11 (Homo sapiens, UniProt Q96DB2)", 7.07]
]}

Would you kindly look at the next entry?
Entry under test: C/C=C1\NC(=O)c2cc(SC)cc(n2)CNC(=O)C[C@@H](/C=C/CCSC(C)=O)OC(=O)[C@H](CC)NC1=O [Compound 178] . Its pIC50 was 7.00

---

Test system: BGC-823 (human gastric cancer cells)
Assay: MTT cancer cell growth inhibition
Type: cell-based
Conditions: Homo sapiens, BGC-823, 72 h, MTT, 72 hours incubation; read-out: GI50 BG
# note: boundary value 60 nM maps to class 0; GI50 below it maps to class 1

{"columns": ["STRUCTURE_NOTATION", "TARGET_OR_SYSTEM", "ASSIGNED_CATEGORY"],
 "data": [
  ["C/C=C1\\NC(=O)c2nc(ccc2F)CNC(=O)C[C@@H](/C=C/CCS)OC(=O)[C@H](CCCCNC(=O)OCC2c3ccccc3-c3ccccc32)NC1=O", "BGC-823 (human gastric cancer cells)", "class 1"]
]}

Enquiry: Does the reported GI50 of the following compound sit strictly below 60 nM? C/C=C1\NC(=O)c2cc(F)cc(n2)CNC(=O)C[C@@H](/C=C/CCSC(=O)CCCCCCC)OC(=O)[C@H](C)NC1=O
Return: class 0

Enquiry: Here's an entry: C/C=C1\NC(=O)c2nccc(n2)CNC(=O)C[C@@H](/C=C/CCSC(C)=O)OC(=O)[C@H](C)NC1=O . Is its GI50 below 60 nM?
Return: class 0

---

Target: HDAC7 (Homo sapiens)
Sequence (Q8WUI4 whole entry): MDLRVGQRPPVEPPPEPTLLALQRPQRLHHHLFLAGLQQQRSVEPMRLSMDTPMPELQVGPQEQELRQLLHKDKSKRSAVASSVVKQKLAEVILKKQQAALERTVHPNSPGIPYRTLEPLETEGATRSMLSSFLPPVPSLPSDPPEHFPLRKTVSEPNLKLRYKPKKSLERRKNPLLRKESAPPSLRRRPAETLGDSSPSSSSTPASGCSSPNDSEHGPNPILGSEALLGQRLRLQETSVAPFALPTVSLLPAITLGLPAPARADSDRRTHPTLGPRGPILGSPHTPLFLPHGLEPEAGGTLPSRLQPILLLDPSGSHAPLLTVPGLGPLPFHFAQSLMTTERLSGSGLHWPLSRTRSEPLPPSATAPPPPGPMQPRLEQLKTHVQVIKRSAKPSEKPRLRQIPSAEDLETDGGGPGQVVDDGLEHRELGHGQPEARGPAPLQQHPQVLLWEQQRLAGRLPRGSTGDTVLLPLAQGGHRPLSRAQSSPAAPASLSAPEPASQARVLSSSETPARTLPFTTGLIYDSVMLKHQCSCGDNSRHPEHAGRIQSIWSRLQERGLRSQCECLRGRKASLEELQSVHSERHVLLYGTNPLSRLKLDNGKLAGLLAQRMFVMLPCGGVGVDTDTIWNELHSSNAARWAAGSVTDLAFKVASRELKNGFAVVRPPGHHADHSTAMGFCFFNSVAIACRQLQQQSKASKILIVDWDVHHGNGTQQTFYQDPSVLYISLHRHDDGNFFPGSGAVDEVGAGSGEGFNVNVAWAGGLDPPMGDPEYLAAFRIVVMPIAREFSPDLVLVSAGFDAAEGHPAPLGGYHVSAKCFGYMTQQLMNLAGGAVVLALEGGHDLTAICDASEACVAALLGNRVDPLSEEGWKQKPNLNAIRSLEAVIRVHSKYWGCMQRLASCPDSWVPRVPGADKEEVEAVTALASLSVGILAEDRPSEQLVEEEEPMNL
Experiment: HDAC biochemical activity measurement (fluorescent substrate deacetylation);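 on IC50 HDAC7: fluorogenic deacetylation assay using acetyl-lysine substrate at 20 µM, enzyme and compound incubated 30 min at 37 °C, then developer added, fluorescence read at 360/460 nm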
Details: HDAC7; 37° C. 30 minutes

{"columns": ["MOLECULE", "IC50 HDAC7"],
 "data": [
  ["C/C=C1\\NC(=O)c2cc(SC)cc(n2)CNC(=O)C[C@@H](/C=C/CCSC(=O)CC)OC(=O)[C@H](C(C)C)NC1=O [Compound 163]", "no activity"],
  ["C/C=C1\\NC(=O)c2cccc(n2)CNC(=O)C[C@@H](/C=C/CCSC(=O)CCCCCCC)OC(=O)[C@H](CSCC)NC1=O [Compound 242]", "no activity"],
  ["C/C=C1\\NC(=O)c2nc(ccc2SC)CNC(=O)C[C@@H](/C=C/CCSC(=O)CCCCCCC)OC(=O)[C@H](C(C)C)NC1=O [Compound 147]", "no activity"]
]}

---

Tested on: MDA-MB-231 (breast cancer cells)
Assay: MTT cancer cell growth inhibition
Format: cell-based
Details: read-out: GI50 MDA-MB-231; MTT, 72 hours incubation, MDA-MB-231 cells
MEASURED_PARAMETER: GI50 (nM)
Record the value in nM, omitting the unit from your answer.

{"columns": ["STRUCTURE_NOTATION", "TARGET_OR_SYSTEM", "MEASURED_PARAMETER", "MEASURE_UNIT", "MEASURED_VALUE"],
 "data": [
  ["C/C=C1\\NC(=O)c2ncc(SC)c(n2)CNC(=O)C[C@@H](/C=C/CCSC(C)=O)OC(=O)[C@H](C(C)C)NC1=O", "MDA-MB-231 (breast cancer cells)", "GI50", "nM", 19]
]}

Lab note: C/C=C1\NC(=O)c2cc(SC)cc(n2)CNC(=O)C[C@@H](/C=C/CCSC(C)=O)OC(=O)[C@H](C(C)C)NC1=O gave GI50 of 62

For C/C=C1\NC(=O)c2cc(SC)cc(n2)CNC(=O)C[C@@H](/C=C/CCSC(C)=O)OC(=O)[C@H](C)NC1=O the molecule record lists GI50 as 15

For C/C=C1\NC(=O)c2nc(ccc2F)CNC(=O)C[C@@H](/C=C/CCSC(C)=O)OC(=O)[C@H](C(C)C)NC1=O the molecule record lists GI50 as 35

---

Target: HDAC1 (Homo sapiens, UniProt Q13547)
Sequence (Q13547 whole entry, species assumed): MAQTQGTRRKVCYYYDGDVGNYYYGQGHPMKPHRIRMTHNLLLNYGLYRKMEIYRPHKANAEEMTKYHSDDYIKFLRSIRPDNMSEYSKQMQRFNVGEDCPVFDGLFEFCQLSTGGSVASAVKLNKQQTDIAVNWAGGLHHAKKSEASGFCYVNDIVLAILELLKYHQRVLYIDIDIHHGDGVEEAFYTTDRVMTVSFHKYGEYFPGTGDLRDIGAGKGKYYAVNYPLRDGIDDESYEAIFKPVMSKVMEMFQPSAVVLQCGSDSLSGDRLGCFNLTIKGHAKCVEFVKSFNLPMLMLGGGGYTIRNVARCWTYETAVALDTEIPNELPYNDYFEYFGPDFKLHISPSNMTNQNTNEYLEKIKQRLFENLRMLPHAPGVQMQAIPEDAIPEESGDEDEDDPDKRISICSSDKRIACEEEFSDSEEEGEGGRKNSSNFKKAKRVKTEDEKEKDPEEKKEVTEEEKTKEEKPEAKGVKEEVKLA
Assay: HDAC biochemical activity measurement (fluorescent substrate deacetylation);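 on IC50 HDAC1, D (non-substituent): fluorogenic acetyl-lysine substrate (20 µM) deacetylated by HDAC1, then developer releases fluorophore read at 360 nm excitation and 460 nm emission, inhibitor incubated 30 min at 37 °C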
Settings: Table 3; read-out: IC50 HDAC1, D (non-substituent)
# IC50 annotations
Provide the reading as a plain figure in µM.

Completed entries (count: 6):
{"columns": ["STRUCTURE_NOTATION", "TARGET_OR_SYSTEM", "MEASURE_UNIT", "IC50"],
 "data": [
  ["C/C=C1\\NC(=O)c2cccc(n2)CNC(=O)C[C@@H](/C=C/CCSC=O)OC(=O)[C@H](C(C)C)NC1=O", "HDAC1 (Homo sapiens, UniProt Q13547)", "µM", 0.153],
  ["C/C=C1\\NC(=O)c2cccc(n2)CNC(=O)C[C@@H](/C=C/CCSC(=O)CCC)OC(=O)[C@H](C(C)C)NC1=O", "HDAC1 (Homo sapiens, UniProt Q13547)", "µM", 0.074],
  ["C/C=C1\\NC(=O)c2cccc(n2)CNC(=O)C[C@@H](/C=C/CCSC(=O)CCCCC)OC(=O)[C@H](C(C)C)NC1=O", "HDAC1 (Homo sapiens, UniProt Q13547)", "µM", 0.171],
  ["C/C=C1\\NC(=O)c2cccc(n2)CNC(=O)C[C@@H](/C=C/CCSC(C)=O)OC(=O)[C@H](Cc2cccc3ccccc23)NC1=O", "HDAC1 (Homo sapiens, UniProt Q13547)", "µM", 0.176],
  ["C/C=C1\\NC(=O)c2cccc(n2)CNC(=O)C[C@@H](/C=C/CCSC(=O)CCCCCCC)OC(=O)[C@H](C)NC1=O", "HDAC1 (Homo sapiens, UniProt Q13547)", "µM", 0.029],
  ["C/C=C1\\NC(=O)c2cccc(n2)CNC(=O)C[C@@H](/C=C/CCSC(C)=O)OC(=O)[C@H](C)NC1=O", "HDAC1 (Homo sapiens, UniProt Q13547)", "µM", 0.081]
]}

Now let's try a different one.
IC50 reading for C/C=C1\NC(=O)c2cccc(n2)CNC(=O)C[C@@H](/C=C/CCSC(=O)CCCCCC)OC(=O)[C@H](C(C)C)NC1=O : 0.192
